B1: ZNF511 (parent)
chain: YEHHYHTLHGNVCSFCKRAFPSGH

Variants of: B1
ASSAY REMARKS: protein stability index of a GFP-peptide fusion (GPS, HEK-293T) (PSI 1-6); higher = more stable;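 further: lentivirally expressed fusions sorted by FACS into six bins by GFP to DsRed ratio, PSI derived from sequencing read proportions per bin multiplied by bin number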
APPLIED CONDITIONS: c terminus: a fixed tail appended
Record form. Attribute: protein stability index. Fill in for each entry.
Number only, no unit.

// recorded protein stability index for R18T : 2.29

// recorded protein stability index for R18C : 1.89

// recorded protein stability index for V12D : 3.41

// recorded protein stability index for V12W : 2.14

// recorded protein stability index for N11V : 1.87

// recorded protein stability index for H4Y : 1.93

// recorded protein stability index for H3D : 3.06

// recorded protein stability index for K17L : 2.4

// recorded protein stability index for Y5R : 2.62

// recorded protein stability index for S14E : 2.53

// recorded protein stability index for C16V : 2.14

// recorded protein stability index for H4P : 2.38

// recorded protein stability index for T7G : 2.14

// recorded protein stability index for A19T : 2.29

// recorded protein stability index for E2M : 2.08

// recorded protein stability index for N11S : 1.95

// recorded protein stability index for R18E : 2.14

// recorded protein stability index for Y1G : 2.99

// recorded protein stability index for H9I : 2.28

// recorded protein stability index for F20L : 2.27

// recorded protein stability index for H4K : 2.03

// recorded protein stability index for H6K : 1.53

// recorded protein stability index for N11T : 2.68

// recorded protein stability index for S14I : 2.53

// recorded protein stability index for H9E : 1.93

// recorded protein stability index for H6V : 2.51

// recorded protein stability index for Y1Q : 3.62

// recorded protein stability index for K17G : 2.61

// recorded protein stability index for P21N : 1.97

// recorded protein stability index for S14C : 2.39

// recorded protein stability index for P21Q : 1.97

// recorded protein stability index for A19Q : 1.47

// recorded protein stability index for R18G : 2.27

// recorded protein stability index for Y1R : 2.22

// recorded protein stability index for S14H : 2.31

// recorded protein stability index for C13K : 2.04

// recorded protein stability index for C16G : 2

// recorded protein stability index for H9D : 1.97

// recorded protein stability index for G10A : 2.23

// recorded protein stability index for C13F : 1.5

// recorded protein stability index for H6P : 1.68

// recorded protein stability index for A19M : 2.29

// recorded protein stability index for Y5A : 2.81

// recorded protein stability index for K17H : 2.18

// recorded protein stability index for G23Q : 1.93

// recorded protein stability index for C16R : 2.17
